# Experimental target: recombinant rat PIM-3 (Rattus norvegicus (Rat), UniProt O70444)
# Experiment description: PIM-3 Enzyme Assay
# Experimental conditions: read-out: PIM-3 IC50; 30 μM ATP, 0.5 nM PIM-3
pIC50: −log10 of the molar value. Structures can show the parent of a compound that is named as a salt.
Entry flag: YES if pIC50 reaches 8; NO if it does not.

Recorded results for 10 compounds are shown here.
>  <Compound>
NCCCNc1cccc2ccc(-c3nnc4ccccn34)nc12

>  <Experimental target>
recombinant rat PIM-3 (Rattus norvegicus (Rat), UniProt O70444)

>  <Class name>
NO

$$$$
>  <Compound>
CNCC(C)(C)COc1cccc2ccc(-c3nnc4ccccn34)nc12

>  <Experimental target>
recombinant rat PIM-3 (Rattus norvegicus (Rat), UniProt O70444)

>  <Class name>
YES

$$$$
>  <Compound>
c1cc(OCC2CCCNC2)c2nc(-c3nnc4ccccn34)ccc2c1 (stereo not drawn)

>  <Experimental target>
recombinant rat PIM-3 (Rattus norvegicus (Rat), UniProt O70444)

>  <Class name>
YES

$$$$
>  <Compound>
COC1(COc2cccc3ccc(-c4nnc5ccccn45)nc23)CCNCC1 [Example 73, bis(trifluoroacetate)]

>  <Experimental target>
recombinant rat PIM-3 (Rattus norvegicus (Rat), UniProt O70444)

>  <Class name>
YES

$$$$
>  <Compound>
c1cc(OCCC2CCCCN2)c2nc(-c3nnc4ccccn34)ccc2c1 (stereo not drawn)

>  <Experimental target>
recombinant rat PIM-3 (Rattus norvegicus (Rat), UniProt O70444)

>  <Class name>
NO

$$$$
>  <Compound>
c1cc(O[C@H]2CCNC2)c2nc(-c3nnc4ccccn34)ccc2c1

>  <Experimental target>
recombinant rat PIM-3 (Rattus norvegicus (Rat), UniProt O70444)

>  <Class name>
NO

$$$$
>  <Compound>
COC(=O)[C@@H]1C[C@H](Oc2cccc3ccc(-c4nnc5ccccn45)nc23)CN1

>  <Experimental target>
recombinant rat PIM-3 (Rattus norvegicus (Rat), UniProt O70444)

>  <Class name>
NO

$$$$
>  <Compound>
c1cc(OC2CCCNCC2)c2nc(-c3nnc4ccccn34)ccc2c1 (single isomer, unassigned) [Example 128]

>  <Experimental target>
recombinant rat PIM-3 (Rattus norvegicus (Rat), UniProt O70444)

>  <Class name>
NO

$$$$
>  <Compound>
Fc1cc(OC2CCNCCC2F)c2nc(-c3nnc4ccccn34)ccc2c1 (single isomer, unassigned) [Example 90]

>  <Experimental target>
recombinant rat PIM-3 (Rattus norvegicus (Rat), UniProt O70444)

>  <Class name>
YES

$$$$
>  <Compound>
CCCC(Oc1cccc2ccc(-c3nnc4ccccn34)nc12)[C@@H](CC)CN (stereo partly drawn)

>  <Experimental target>
recombinant rat PIM-3 (Rattus norvegicus (Rat), UniProt O70444)

>  <Class name>
NO

$$$$

Task: Decide: is the reported value of pIC50 for OC[C@@H]1C[C@@H](Oc2cccc3ccc(-c4nnc5ccccn45)nc23)CCN1 [Example 56, dihydrochloride] equal to or greater than 8?
Output: NO

Task: Same for CCCC(Oc1cccc2ccc(-c3nnc4ccccn34)nc12)[C@H](CC)CN (stereo partly drawn)
Output: NO

Task: Same for CON(C)C(=O)[C@@H]1C[C@@H](Oc2cccc3ccc(-c4nnc5ccccn45)nc23)CCN1 [Example 55, dihydrochloride]
Output: NO

Task: Same for NC(=O)N1CCC(Oc2cccc3ccc(-c4nnc5ccccn45)nc23)CC1
Output: NO

Task: Same for CC(C)COc1cccc2ccc(-c3nnc4cc(CN)ccn34)nc12
Output: YES

====

# Experimental target: GST-tagged recombinant full-length human PIM-2 (Homo sapiens (Human), UniProt Q9P1W9)
# Sequence (Q9P1W9 whole entry): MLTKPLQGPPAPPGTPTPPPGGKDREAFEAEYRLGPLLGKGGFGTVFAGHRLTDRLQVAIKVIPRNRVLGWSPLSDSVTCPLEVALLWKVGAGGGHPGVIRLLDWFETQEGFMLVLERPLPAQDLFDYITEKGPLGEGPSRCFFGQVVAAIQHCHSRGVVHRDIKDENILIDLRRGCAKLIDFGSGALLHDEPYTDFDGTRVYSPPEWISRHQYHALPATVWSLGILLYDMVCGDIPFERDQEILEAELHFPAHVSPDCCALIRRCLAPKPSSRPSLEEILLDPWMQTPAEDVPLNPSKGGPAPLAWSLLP
# Experiment description: PIM-2 Enzyme Assay
# Experimental conditions: read-out: PIM-2 IC50; 4 μM ATP, […] PIM-2
Counter-ions that a name gives are not always drawn.
Consider the following molecules and their measured IC50 readings.
Form entry: value (nM) — number only.

Task: Test system GST-tagged recombinant full-length human PIM-2 (Homo sapiens (Human), UniProt Q9P1W9); read-out IC50; what value for N#Cc1ccc2nnc(-c3ccc4cccc(O[C@@H]5CCNCC[C@H]5F)c4n3)n2c1 (relative stereo) [Example 101, dihydrochloride] ?
Output: 1000

Task: Same for CN1CCC(F)C(Oc2cccc3ccc(-c4nnc5ccccn45)nc23)CC1 (centres unmarked) [Example 119]
Output: 574

====

# Experimental target: GST-tagged recombinant full-length human PIM-2 (Homo sapiens (Human), UniProt Q9P1W9)
# Experiment description: PIM-2 Enzyme Assay
# Experimental conditions: read-out: PIM-2 IC50; 4 μM ATP, […] PIM-2; dihydrochloride
Where a name gives a salt, the structure may show the parent alone.
Value kind: IC50

>  <Compound>
FC1CNCCC1Oc1cccc2ccc(-c3nnc4ccccn34)nc12 (single isomer, unassigned) [Example 97, dihydrochloride]

>  <IC50>
1000 nM

$$$$

Task: I have this compound here, FC1CNCCC1Oc1cccc2ccc(-c3nnc4ccccn34)nc12 (single isomer, unassigned) [Example 94, dihydrochloride] , and I need its recorded IC50.
Output: 1000 nM

Task: Same for Cc1ccc2nnc(-c3ccc4cccc(OC5CCNCCC5F)c4n3)n2c1 (single isomer, unassigned) [Example 99, dihydrochloride]
Output: 1000 nM

====

# Experimental target: GST-tagged recombinant full-length human PIM-2 (Homo sapiens (Human))
# Experiment description: PIM-2 Enzyme Assay
# Experimental conditions: read-out: PIM-2 IC50; 4 μM ATP, […] PIM-2
pIC50: −log10 of the molar value. Counter-ions that a name gives are not always drawn.
Entry flag: Satisfied if pIC50 reaches 6; Not satisfied if it does not.

Recorded results for 3 compounds are shown here.
>  <Compound>
CCC(Oc1cccc2ccc(-c3nnc4ccccn34)nc12)[C@H](CC)CN (some centres unmarked)

>  <Class name>
Satisfied

$$$$
>  <Compound>
CC1(COc2cccc3ccc(-c4nnc5ccccn45)nc23)CCNCC1 [Example 67, dihydrochloride]

>  <Class name>
Satisfied

$$$$
>  <Compound>
CC(C)(CO)COc1cccc2ccc(-c3nnc4cc(CN)ccn34)nc12

>  <Class name>
Satisfied

$$$$

Task: Decide: is the reported value of pIC50 for Cc1ccn2c(-c3ccc4cccc(OCC(C)(C)CN)c4n3)nnc2c1 [Example 123, trihydrochloride] equal to or greater than 6?
Output: Satisfied

Task: Same for c1cc(OCC2(CC3CC3)CCNCC2)c2nc(-c3nnc4ccccn34)ccc2c1 [Example 69, dihydrochloride]
Output: Satisfied

Task: Same for CON(C)C(=O)[C@@H]1C[C@@H](Oc2cccc3ccc(-c4nnc5ccccn45)nc23)CCN1 [Example 55, dihydrochloride]
Output: Not satisfied

Task: Same for CC[C@@H](CN)C(C)Oc1cccc2ccc(-c3nnc4ccccn34)nc12 (some centres unmarked)
Output: Satisfied

Task: Same for CC(C)(CN)COc1ccc(F)c2ccc(-c3nnc4ccccn34)nc12
Output: Not satisfied

====

# Experimental target: GST-tagged recombinant full-length human PIM-2 (Homo sapiens (Human), UniProt Q9P1W9)
# Experiment description: PIM-2 Enzyme Assay
# Experimental conditions: read-out: PIM-2 IC50; 4 μM ATP, […] PIM-2
Counter-ions that a name gives are not always drawn.
Value kind: IC50 (nM)
Form entry: value (nM) — number only.

Here is how some compounds turned out for IC50.
>  <Compound>
CCN1CCC(F)(COc2cccc3ccc(-c4nnc5ccccn45)nc23)CC1 [Example 104, dihydrochloride]

>  <Value kind>
IC50

>  <Recorded measurement>
191

$$$$
>  <Compound>
CN1CCC(F)(COc2cccc3ccc(-c4nnc5ccccn45)nc23)CC1 [Example 84, dihydrochloride]

>  <Value kind>
IC50

>  <Recorded measurement>
73

$$$$
>  <Compound>
OC[C@@H]1C[C@@H](Oc2cccc3ccc(-c4nnc5ccccn45)nc23)CCN1 [Example 56, dihydrochloride]

>  <Value kind>
IC50

>  <Recorded measurement>
427

$$$$

Turning now to a further compound:
Task: Test system GST-tagged recombinant full-length human PIM-2 (Homo sapiens (Human), UniProt Q9P1W9); read-out IC50; what value for Cc1ccn2c(-c3ccc4cccc(OC5CCNCCC5F)c4n3)nnc2c1 (single isomer, unassigned) [Example 92] ?
Output: 244

====

# Experimental target: GST-tagged recombinant full-length human PIM-2 (Homo sapiens (Human))
# Experiment description: PIM-2 Enzyme Assay
# Experimental conditions: PIM-2 IC50 (nM), 4 μM ATP, […] PIM-2
Structures can show the parent of a compound that is named as a salt.
Consider the following compounds and their measured IC50 readings.
Form entry: value (nM) — number only.

Here is how some compounds turned out for IC50.
>  <Compound>
FC1CCNCCC1Oc1cccc2ccc(-c3nnc4ccccn34)nc12 (single isomer, unassigned) [Example 47, dihydrochloride]

>  <Experimental target>
GST-tagged recombinant full-length human PIM-2 (Homo sapiens (Human))

>  <Recorded measurement>
1170

$$$$
>  <Compound>
N[C@H]1CC[C@@H](Oc2cccc3ccc(-c4nnc5ccccn45)nc23)CC1 [Example 42]

>  <Experimental target>
GST-tagged recombinant full-length human PIM-2 (Homo sapiens (Human))

>  <Recorded measurement>
22

$$$$
>  <Compound>
FC1CCNCCC1Oc1cccc2ccc(-c3nnc4ccccn34)nc12 (single isomer, unassigned) [Example 48, dihydrochloride]

>  <Experimental target>
GST-tagged recombinant full-length human PIM-2 (Homo sapiens (Human))

>  <Recorded measurement>
147

$$$$
>  <Compound>
FC1CCNCCC1Oc1cccc2ccc(-c3nnc4ccccn34)nc12 (single isomer, unassigned) [Example 50, dihydrochloride]

>  <Experimental target>
GST-tagged recombinant full-length human PIM-2 (Homo sapiens (Human))

>  <Recorded measurement>
290

$$$$
>  <Compound>
FC1CCNCCC1Oc1cccc2ccc(-c3nnc4ccccn34)nc12 (single isomer, unassigned) [Example 49, dihydrochloride]

>  <Experimental target>
GST-tagged recombinant full-length human PIM-2 (Homo sapiens (Human))

>  <Recorded measurement>
100

$$$$

Turning now to a further compound:
Task: I have this compound here, FC1CCNCCC1Oc1cccc2ccc(-c3nnc4ccccn34)nc12 (stereo not drawn) [Example 46] , and I need its recorded IC50.
Output: 96
